meta.source: patent US20240239794A1

target: Recombinant human PKC-theta (His-tagged 362-706) (Homo sapiens (Human)); assay: PKC-theta inhibition assay (HTRF KinEASE kit); type: biochemical; settings: ATP 6.5 μM, binned A to H, read-out: PKC-theta HTRF pIC50 (binned) (converted)
measured.endpoint: IC50

Recorded results for 3 compounds are shown here.
| compound | measured |
| --- | --- |
| CC1(C)C(=O)Nc2nccc(-c3nn([C@H]4CC[C@H](N)CC4)c4ccccc34)c21 | ≤ 1 nM |
| CC1(Cn2nc(-c3ccnc4c3C(C)(C)C(=O)N4)c3ccccc32)COCCN1 (stereo not shown) | 1 to 3.16 nM |
| CC[C@@]1(C)C(=O)Nc2nccc(-c3nn([C@H]4CCNC[C@H]4F)c4ccccc34)c21 (single isomer, unassigned) | 10 to 31.6 nM |

Lookup result for C[C@@]1(O)C(=O)Nc2nccc(-c3nn(C4(CC#N)COC4)c4ccccc34)c21 (single isomer, unassigned) ; measured IC50: 100 to 316 nM

Lookup result for CC1(O)C(=O)Nc2nccc(-c3cn(C4(CC#N)CCC4)c4ccccc34)c21 (stereo not shown) ; measured IC50: 3.16 to 10 nM

Lookup result for CO[C@@]1(C)C(=O)Nc2nccc(-c3nn([C@H]4CCNC[C@H]4F)c4ccccc34)c21 (single isomer, unassigned) ; measured IC50: 3.16 to 10 nM

Lookup result for CC1(C)C(=O)Nc2nccc(-c3nn([C@H]4CCNC[C@@H]4F)c4ccccc34)c21 (racemic) ; measured IC50: 3.16 to 10 nM

Lookup result for C[C@@]1(O)C(=O)Nc2nccc(-c3nn(C4CCNCC4)c4cc(C(F)(F)F)ccc34)c21 (single isomer, unassigned) ; measured IC50: 10 to 31.6 nM

Lookup result for CC1(C)C(=O)Nc2nccc(-c3nn(C4CCNCC4)c4ccccc34)c21 ; measured IC50: 1 to 3.16 nM

---

Molecular target: Recombinant human PKC-theta (His-tagged 362-706) (Homo sapiens (Human), UniProt Q04759)
Sequence (Q04759 362-706): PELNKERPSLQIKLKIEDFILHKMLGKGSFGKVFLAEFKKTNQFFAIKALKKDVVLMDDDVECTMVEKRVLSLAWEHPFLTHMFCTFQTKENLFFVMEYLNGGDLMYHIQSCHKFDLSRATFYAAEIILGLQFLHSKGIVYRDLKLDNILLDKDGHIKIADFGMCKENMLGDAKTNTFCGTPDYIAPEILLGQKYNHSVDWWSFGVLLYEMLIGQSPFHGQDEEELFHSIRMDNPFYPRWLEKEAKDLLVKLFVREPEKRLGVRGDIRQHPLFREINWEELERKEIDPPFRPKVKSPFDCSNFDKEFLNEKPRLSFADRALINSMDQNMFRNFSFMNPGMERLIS
Experiment: PKC-theta inhibition assay (HTRF KinEASE kit)
Type: biochemical
Details: ATP 6.5 μM
Experimental: PKC-theta and PKC-delta biochemical activities were measured using the PKC-theta HTRF KinEASEkit kit, according to manufacturer's instructions (Cisbio, catalogue number 61ST1PEJ). […] Fluorescence was measured on an Envision 2103 plate reader with optical setup for […] in the HTRF mode. The ratio of acceptor and donor emission signals was calculated for each well. […]
Recorded measurements of PKC-theta HTRF pIC50, one per entry
# respond with the number and nothing more

Lookup result for CC1(C)C(=O)Nc2nccc(-c3nn([C@H]4CCNC4)c4ccc(F)cc34)c21 [Example 73] ; measured PKC-theta HTRF pIC50: 7.5

Lookup result for CC1(C)C(=O)Nc2nccc(-c3nn(CC4(F)CCCNC4)c4ccccc34)c21 (stereo not shown) [Example 44] ; measured PKC-theta HTRF pIC50: 7.5

Lookup result for CC1(C)C(=O)Nc2nccc(-c3nn([C@H]4CCNC4)c4cc(Cl)ccc34)c21 [Example 71] ; measured PKC-theta HTRF pIC50: 8.1

Lookup result for CC1(O)C(=O)Nc2nccc(-c3nn([C@H]4CCNC[C@@H]4F)c4ccccc34)c21 (stereo partly shown) [Example 35] ; measured PKC-theta HTRF pIC50: 8.5
